molecular target: UniProt Q15418; assay: Inhibition of RSK1 (unknown origin) at 30 uM by microfluidic mobility shift assay relative to control
Sequence (Q15418 whole entry): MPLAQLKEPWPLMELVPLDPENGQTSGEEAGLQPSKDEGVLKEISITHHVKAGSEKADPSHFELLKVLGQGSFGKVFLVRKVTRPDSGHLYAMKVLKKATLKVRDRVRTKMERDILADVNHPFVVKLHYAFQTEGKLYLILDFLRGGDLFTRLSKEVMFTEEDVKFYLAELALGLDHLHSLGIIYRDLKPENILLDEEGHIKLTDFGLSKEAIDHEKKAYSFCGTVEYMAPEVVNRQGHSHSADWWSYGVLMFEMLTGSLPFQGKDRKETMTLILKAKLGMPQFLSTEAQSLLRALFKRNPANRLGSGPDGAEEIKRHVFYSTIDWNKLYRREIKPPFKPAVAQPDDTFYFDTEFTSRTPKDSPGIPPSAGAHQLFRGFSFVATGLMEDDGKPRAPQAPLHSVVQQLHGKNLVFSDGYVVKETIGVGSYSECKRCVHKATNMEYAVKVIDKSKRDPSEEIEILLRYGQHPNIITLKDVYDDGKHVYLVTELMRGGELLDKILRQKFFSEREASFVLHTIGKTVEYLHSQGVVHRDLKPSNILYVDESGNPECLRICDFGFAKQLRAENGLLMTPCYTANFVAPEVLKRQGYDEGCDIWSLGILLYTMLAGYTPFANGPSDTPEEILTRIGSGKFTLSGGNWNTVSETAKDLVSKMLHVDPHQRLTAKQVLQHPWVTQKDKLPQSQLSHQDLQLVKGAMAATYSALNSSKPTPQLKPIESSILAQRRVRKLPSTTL
experimentalReadout: inhibition (%)
Dear colleague, please return just the value in %, with no unit written.

For orientation, consider the following solved cases.
{"compound": "O=S(=O)(c1cccc2cnccc12)N1CCC2(CC1)CC(O)CCN2 (racemic)", "targetUnderTest": "UniProt Q15418", "experimentalReadout": "inhibition", "value": 74}
{"compound": "O=C(C1CCC2(CCN(c3ncnc4[nH]cnc34)CC2)NC1)N1CCOCC1 (racemic)", "targetUnderTest": "UniProt Q15418", "experimentalReadout": "inhibition", "value": 27}

Q: What value of inhibition on UniProt Q15418 does c1nc(N2CCCC23CCNCC3)c2nc[nH]c2n1 have?
A: 13

Q: Query inhibition on UniProt Q15418 for c1nc(N2CCCC3(CCCNC3)C2)c2nc[nH]c2n1 (stereo unspecified)
A: 39

Q: UniProt Q15418 / inhibition / c1ccc(C2CCC3(CCN(c4ncnc5[nH]cnc45)CC3)NC2)cc1 (stereo unspecified) : value?
A: 64

----------
target: UniProt P06241; assay: Inhibition of FYN (unknown origin) at 30 uM by microfluidic mobility shift assay relative to control
Sequence (P06241 2-537 limits assumed): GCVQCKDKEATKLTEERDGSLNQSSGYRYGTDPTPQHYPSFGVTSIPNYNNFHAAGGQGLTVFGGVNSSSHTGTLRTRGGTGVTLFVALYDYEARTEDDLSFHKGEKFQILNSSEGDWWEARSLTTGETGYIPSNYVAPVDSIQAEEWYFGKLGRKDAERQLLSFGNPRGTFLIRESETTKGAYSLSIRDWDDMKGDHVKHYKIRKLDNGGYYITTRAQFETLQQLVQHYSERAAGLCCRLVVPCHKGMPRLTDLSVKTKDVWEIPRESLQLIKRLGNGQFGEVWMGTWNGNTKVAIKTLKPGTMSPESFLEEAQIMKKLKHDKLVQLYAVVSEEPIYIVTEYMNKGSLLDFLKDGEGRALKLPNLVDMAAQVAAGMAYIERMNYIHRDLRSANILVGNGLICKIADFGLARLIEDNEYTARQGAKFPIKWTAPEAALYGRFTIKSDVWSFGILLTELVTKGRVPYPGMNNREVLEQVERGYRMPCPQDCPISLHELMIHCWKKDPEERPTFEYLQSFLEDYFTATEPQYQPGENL
experimentalReadout: inhibition (%)
The figure you give is taken to be in %; do not add the unit.

Example results:
{"molecule": "c1nc(N2CCCC3(CCNCC3)C2)c2nc[nH]c2n1", "experimentalReadout": "inhibition", "unitText": "%", "value": 33}
{"molecule": "NC1(Cc2ccccc2)CCN(c2ncnc3[nH]cnc23)CC1", "experimentalReadout": "inhibition", "unitText": "%", "value": 39}
{"molecule": "OC1CCNC2(CCN(c3ncnc4[nH]cnc34)CC2)C1 (racemic)", "experimentalReadout": "inhibition", "unitText": "%", "value": 28}
{"molecule": "O=S(=O)(c1cccc2cnccc12)N1CCC2(CCCN2)CC1", "experimentalReadout": "inhibition", "unitText": "%", "value": 5}
{"molecule": "O=S(=O)(c1cccc2cnccc12)N1CCC2(CCCNC2)CC1", "experimentalReadout": "inhibition", "unitText": "%", "value": 11}
{"molecule": "c1ccc(CC2CCC3(CCN(c4ncnc5[nH]cnc45)CC3)NC2)cc1 (racemic)", "experimentalReadout": "inhibition", "unitText": "%", "value": 20}

Q: Requested field: inhibition. Item: NC1(Cc2ccccc2)CCN(S(=O)(=O)c2cccc3cnccc23)CC1
A: 5

Q: Would you kindly share the measured inhibition for c1nc(N2CCC3(CCCOC3)CC2)c2nc[nH]c2n1 ?
A: 36

Q: Reported inhibition, molecule COC(=O)C1CCC2(CCN(c3ncnc4[nH]cnc34)CC2)NC1 (racemic) : ____
A: 6

Q: Fill in: inhibition of c1ccc(C2CCNC3(CCN(c4ncnc5[nH]cnc45)CC3)C2)cc1 (racemic) is ___
A: 56

Q: Look at this molecule and give its reported inhibition. O=C(O)C1CCC2(CCN(c3ncnc4[nH]cnc34)CC2)NC1 (racemic)
A: 5

----------
biological target: Serine/threonine-protein kinase Chk1 (Homo sapiens) (UniProt O14757); assay: Inhibition of CHK1 (unknown origin) at 30 uM by microfluidic mobility shift assay relative to control
Sequence (O14757 whole entry): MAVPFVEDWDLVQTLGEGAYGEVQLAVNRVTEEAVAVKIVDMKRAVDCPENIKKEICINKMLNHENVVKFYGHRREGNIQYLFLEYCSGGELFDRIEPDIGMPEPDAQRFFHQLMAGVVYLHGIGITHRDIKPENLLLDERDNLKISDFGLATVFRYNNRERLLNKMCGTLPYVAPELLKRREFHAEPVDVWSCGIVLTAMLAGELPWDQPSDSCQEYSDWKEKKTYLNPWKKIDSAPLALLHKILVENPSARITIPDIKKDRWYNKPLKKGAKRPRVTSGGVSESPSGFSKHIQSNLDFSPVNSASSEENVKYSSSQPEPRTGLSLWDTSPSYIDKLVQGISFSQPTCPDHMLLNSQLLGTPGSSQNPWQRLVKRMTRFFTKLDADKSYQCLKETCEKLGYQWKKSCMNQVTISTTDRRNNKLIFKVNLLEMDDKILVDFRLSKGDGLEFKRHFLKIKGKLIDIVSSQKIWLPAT
# inhibition binned as Low: < 60%; Mid: ≥ 60% and < 80%; High: ≥ 80%

{"molecule": "O=S(=O)(c1cccc2cnccc12)N1CCCC2(CCCNC2)C1 (stereo not given)", "targetUnderTest": "Serine/threonine-protein kinase Chk1 (Homo sapiens) (UniProt O14757)", "classAssignment": "High"}
{"molecule": "c1nc(N2CCC3(CCCCN3)CC2)c2nc[nH]c2n1", "targetUnderTest": "Serine/threonine-protein kinase Chk1 (Homo sapiens) (UniProt O14757)", "classAssignment": "High"}
{"molecule": "CN(C)C(=O)C1CCC2(CCN(c3ncnc4[nH]cnc34)CC2)NC1 (racemic)", "targetUnderTest": "Serine/threonine-protein kinase Chk1 (Homo sapiens) (UniProt O14757)", "classAssignment": "Low"}

Q: Which band does c1nc(N2CCC3(CCCNC3)CC2)c2nc[nH]c2n1 fall in?
A: High

Q: Band for the recorded inhibition of O=S(=O)(c1cccc2cnccc12)N1CCCC12CCNCC2 ?
A: Low

Q: Which of the defined bands does the recorded inhibition of c1nc(N2CCC3(CCCCO3)CC2)c2nc[nH]c2n1 sit within?
A: Low

Q: Quick check: band for NC1(Cc2ccccc2)CCN(c2ncnc3[nH]cnc23)CC1
A: Mid

Q: Quick check: band for c1ccc(C2CCNC3(CCN(c4ncnc5[nH]cnc45)CC3)C2)cc1 (racemic)
A: Mid
